# Test system: Aeromonas caviae
# Measurement protocol: Activity of Aeromonas caviae Beta-lactamase CAV1
Answer each item with its documented kcat.
Numbers only, in s⁻¹.

// query Recorded kcat of CC(=O)OCC1=C(C(=O)O)N2C(=O)[C@@H](NC(=O)Cc3cccs3)[C@H]2SC1 [CEPHALOTHIN] , please.
// result 540

// query Same question for O=C(Cc1cccs1)N[C@@H]1C(=O)N2C(C(=O)[O-])=C(C[n+]3ccccc3)CS[C@H]12 please.
// result 300

// query CC1(C)S[C@@H]2[C@H](NC(=O)Cc3ccccc3)C(=O)N2[C@H]1C(=O)O [PENICILLIN G] , same question.
// result 5

// query What about CO[C@@]1(NC(=O)Cc2cccs2)C(=O)N2C(C(=O)O)=C(COC(N)=O)CS[C@@H]21 [CEFOXITIN] ?
// result 0.5

// query Item: CC(C)(O/N=C(\C(=O)N[C@@H]1C(=O)N2C(C(=O)[O-])=C(C[n+]3ccccc3)CS[C@H]12)c1csc(N)n1)C(=O)O [CEFTAZIDIME]
// result 0.2

// query One more compound: CO/N=C(\C(=O)N[C@@H]1C(=O)N2C(C(=O)O)=C(COC(C)=O)CS[C@H]12)c1csc(N)n1 [CEFOTAXIME]
// result 0.2

Please find the next compound below.
// query Query: kcat; subject: CO/N=C(\C(=O)N[C@@H]1C(=O)N2C(C(=O)[O-])=C(C[N+]3(C)CCCC3)CS[C@H]12)c1csc(N)n1
// result 2.5

====

Can you tell me log10 MIC for the items I'm about to list?
# System: Escherichia coli
# Measurement protocol: Antimicrobial activity against Escherichia coli TOP10
# Type: functional
Would you kindly interpret these values as log10 of MIC expressed in µg/mL?

# annotated cases, reported log10 MIC shown
// query What does the record list as log10 MIC for CC1(C)S[C@@H]2[C@H](NC(=O)[C@H](N)c3ccc(O)cc3)C(=O)N2[C@H]1C(=O)O ?
// result 0.30

// query Then this compound: CC(C)(O/N=C(\C(=O)N[C@@H]1C(=O)N2C(C(=O)[O-])=C(C[n+]3ccccc3)CS[C@H]12)c1csc(N)n1)C(=O)O
// result -0.90

// query Request: CC(=O)OCC1=C(C(=O)O)N2C(=O)[C@@H](NC(=O)Cc3cccs3)[C@H]2SC1
// result 0.60

// query Same lookup for CC1(C)S[C@@H]2[C@H](NC(=O)[C@H](C(=O)O)c3ccsc3)C(=O)N2[C@H]1C(=O)O , please.
// result 0.60

// query Now try CCN1CCN(C(=O)N[C@@H](C(=O)N[C@@H]2C(=O)N3[C@@H]2SC(C)(C)[C@@H]3C(=O)O)c2ccccc2)C(=O)C1=O .
// result 0.00

// query Now try CO/N=C(\C(=O)N[C@@H]1C(=O)N2C(C(=O)[O-])=C(C[N+]3(C)CCCC3)CS[C@H]12)c1csc(N)n1 .
// result -1.52

// query Subsequent entry: CO/N=C(\C(=O)N[C@@H]1C(=O)N2C(C(=O)[O-])=C(C[n+]3cccc4c3CCC4)CS[C@H]12)c1csc(N)n1
// result -1.52

// query Entry CO/N=C(\C(=O)N[C@@H]1C(=O)N2C(C(=O)O)=C(COC(C)=O)CS[C@H]12)c1csc(N)n1 please
// result -1.22

***
// query Reported log10 MIC for CO[C@@]1(NC(=O)Cc2cccs2)C(=O)N2C(C(=O)O)=C(COC(N)=O)CS[C@@H]21 : what is it?
// result 0.60

====

# Tested on: Aeromonas caviae
# Measurement protocol: Ratio of Kcat Km for Aeromonas caviae Beta-lactamase CAV1
Give measured kcat/Km for each item. Keep answers brief.
Answers are plain numbers, in ×10⁵ /M/s.

// query Tell me the measured kcat/Km of O=C(Cc1cccs1)N[C@@H]1C(=O)N2C(C(=O)[O-])=C(C[n+]3ccccc3)CS[C@H]12 , please.
// result 3.9

// query CC1(C)S[C@@H]2[C@H](NC(=O)Cc3ccccc3)C(=O)N2[C@H]1C(=O)O , same question.
// result 5.7

Moving on to the next compound.
// query Find the recorded kcat/Km belonging to CC(C)(O/N=C(\C(=O)N[C@@H]1C(=O)N2C(C(=O)[O-])=C(C[n+]3ccccc3)CS[C@H]12)c1csc(N)n1)C(=O)O and report it.
// result 3.3

====

# Test system: Aeromonas enteropelogenes
# Measurement protocol: Activity of Aeromonas enteropelogenes Beta-lactamase TRU1
Consider the following compounds; for each one, report its Km.

// query Can you look up the measured Km of C[C@@H](O)[C@H]1C(=O)N2C(C(=O)O)=C(SCCNC=N)C[C@H]12 [IMIPENEM ANHYDROUS] for me?
// result > 500 µM

// query Quick one: Cc1nnc(SCC2=C(C(=O)O)N3C(=O)[C@@H](NC(=O)Cn4cnnn4)[C@H]3SC2)s1
// result 120 µM

// query And the next one, CO/N=C(\C(=O)N[C@@H]1C(=O)N2C(C(=O)[O-])=C(C[n+]3cccc4c3CCC4)CS[C@H]12)c1csc(N)n1 [CEFPIROME] ?
// result 85 µM

State the recorded Km for every item in the following list.
1. O=C(Cc1cccs1)N[C@@H]1C(=O)N2C(C(=O)[O-])=C(C[n+]3ccccc3)CS[C@H]12
2. C[C@H]1[C@H](NC(=O)/C(=N\OC(C)(C)C(=O)O)c2csc(N)n2)C(=O)N1S(=O)(=O)O [AZTREONAM]
3. CC1=C(C(=O)O)N2C(=O)[C@@H](NC(=O)[C@H](N)c3ccccc3)[C@H]2SC1
4. CO/N=C(\C(=O)N[C@@H]1C(=O)N2C(C(=O)[O-])=C(C[N+]3(C)CCCC3)CS[C@H]12)c1csc(N)n1
5. CC1(C)S[C@@H]2[C@H](NC(=O)[C@H](N)c3ccccc3)C(=O)N2[C@H]1C(=O)O
6. CC(=O)OCC1=C(C(=O)O)N2C(=O)[C@@H](NC(=O)Cc3cccs3)[C@H]2SC1 [CEPHALOTHIN]

// result
1. > 600 µM
2. > 500 µM
3. 17 µM
4. 360 µM
5. 0.72 µM
6. 45 µM

====

# Test system: Escherichia coli K-12
# Measurement protocol: Activity of Escherichia coli K-12 Beta-lactamase AmpC
Record form. Attribute: Km. Fill in for each entry.
Numbers only, in µM.

// query What does the record list as Km for CC(=O)OCC1=C(C(=O)O)N2C(=O)[C@@H](NC(=O)Cc3cccs3)[C@H]2SC1 ?
// result 42

// query Now consider CC1(C)S[C@@H]2[C@H](NC(=O)Cc3ccccc3)C(=O)N2[C@H]1C(=O)O .
// result 4.4

// query Also need CO/N=C(\C(=O)N[C@@H]1C(=O)N2C(C(=O)O)=C(COC(N)=O)CS[C@H]12)c1ccco1 , thanks.
// result 0.15

Would you be so kind as to report Km for each listed record?
1. O=C(Cc1cccs1)N[C@@H]1C(=O)N2C(C(=O)[O-])=C(C[n+]3ccccc3)CS[C@H]12
2. CC1(C)S[C@@H]2[C@H](NC(=O)[C@H](N)c3ccccc3)C(=O)N2[C@H]1C(=O)O
3. CO/N=C(\C(=O)N[C@@H]1C(=O)N2C(C(=O)O)=C(COC(C)=O)CS[C@H]12)c1csc(N)n1
4. CO[C@@]1(NC(=O)Cc2cccs2)C(=O)N2C(C(=O)O)=C(COC(N)=O)CS[C@@H]21

// result
1: 4; 2: 3.5; 3: 1.7; 4: 0.65

====

# System: Aeromonas enteropelogenes
# Measurement protocol: Ratio of Kcat Km for Aeromonas enteropelogenes Beta-lactamase TRU1
Property measured: kcat/Km

Answered cases to consult:
// query I have this compound here, CO/N=C(\C(=O)N[C@@H]1C(=O)N2C(C(=O)O)=C(COC(N)=O)CS[C@H]12)c1ccco1 , and I need its recorded kcat/Km.
// result 3.8 ×10⁶ /M/s

// query Now the compound CC(=O)OCC1=C(C(=O)O)N2C(=O)[C@@H](NC(=O)Cc3cccs3)[C@H]2SC1
// result 1 ×10⁷ /M/s

// query Also CO/N=C(\C(=O)N[C@@H]1C(=O)N2C(C(=O)[O-])=C(C[N+]3(C)CCCC3)CS[C@H]12)c1csc(N)n1 , if possible.
// result 2.6 ×10⁴ /M/s

// query Similarly, CO/N=C(\C(=O)N[C@@H]1C(=O)N2C(C(=O)[O-])=C(C[n+]3cccc4c3CCC4)CS[C@H]12)c1csc(N)n1 ?
// result 2.7 ×10⁵ /M/s

// query Try this compound too: CC1(C)S[C@@H]2[C@H](NC(=O)Cc3ccccc3)C(=O)N2[C@H]1C(=O)O
// result 1.4 ×10⁷ /M/s

List reported kcat/Km for each of these compounds:
1. CC1(C)S[C@@H]2[C@H](NC(=O)[C@H](N)c3ccccc3)C(=O)N2[C@H]1C(=O)O
2. CO[C@@]1(NC(=O)Cc2cccs2)C(=O)N2C(C(=O)O)=C(COC(N)=O)CS[C@@H]21
3. CC1=C(C(=O)O)N2C(=O)[C@@H](NC(=O)[C@H](N)c3ccccc3)[C@H]2SC1
4. O=C(Cc1cccs1)N[C@@H]1C(=O)N2C(C(=O)[O-])=C(C[n+]3ccccc3)CS[C@H]12

// result
["8.8 ×10⁵ /M/s", "3.5 ×10⁷ /M/s", "9.3 ×10⁶ /M/s", "1.7 ×10⁵ /M/s"]

Respectfully, I request kcat/Km for each entry included below.
1. CO/N=C(\C(=O)N[C@@H]1C(=O)N2C(C(=O)O)=C(COC(C)=O)CS[C@H]12)c1csc(N)n1
2. CO/N=C(\C(=O)N[C@@H]1C(=O)N2C(C(=O)O)=C(CSc3nc(=O)c(O)nn3C)CS[C@H]12)c1csc(N)n1
3. CC(C)(O/N=C(\C(=O)N[C@@H]1C(=O)N2C(C(=O)[O-])=C(C[n+]3ccccc3)CS[C@H]12)c1csc(N)n1)C(=O)O

// result
["1.7 ×10⁷ /M/s", "7 ×10⁵ /M/s", "9.2 ×10⁵ /M/s"]

# batch: return kcat/Km for each of the 2 compounds below
1. CCN1CCN(C(=O)N[C@@H](C(=O)N[C@@H]2C(=O)N3[C@@H]2SC(C)(C)[C@@H]3C(=O)O)c2ccccc2)C(=O)C1=O
2. Cc1nnc(SCC2=C(C(=O)O)N3C(=O)[C@@H](NC(=O)Cn4cnnn4)[C@H]3SC2)s1

// result
2.7 ×10⁶ /M/s
4.6 ×10³ /M/s

Value source: ChEMBL document CHEMBL1255416
